This collection of values is drawn from patent US20080221095A1.

IC50 tested on catalytic domain of MMP-13 enzyme (Homo sapiens, UniProt P45452): recorded values

Cn1c(=O)oc2ccc(CNC(=O)c3nc4ccccc4c(=O)[nH]3)cc21 [1/7] ... < 100 nM

For CC1N=C(C(=O)NCc2ccc3c(c2)NC(=O)CO3)NC(=O)C1c1ccccc1 (stereo not shown) [1/29] , what is its reported IC50?
< 100 nM

Quick one: Cc1ccc2nc(NC(=O)Cc3ccc4c(c3)NC(=O)CO4)[nH]c(=O)c2c1 [1/34]
100 to 20000 nM

Quick one: O=C1COc2c(F)cc(CNC(=O)c3nc4ccc(F)cc4c(=O)[nH]3)cc2N1 [1/11]
< 100 nM

Quick one: O=C1COc2ccc(CNC(=O)c3nc4ccccc4c(=O)[nH]3)cc2N1 [1/4]
< 100 nM

----------
pIC50: −log10 of the molar value.
pIC50 tested on catalytic domain of MMP-13 enzyme (Homo sapiens): recorded values

O=C(NCc1ccc2c(c1)NC(=S)CO2)c1nc2ccccc2c(=O)[nH]1 [1/16] ... > 7.00
CN1C(=O)COc2ccc(CNC(=O)c3nc4ccccc4c(=O)[nH]3)cc21 [1/8] ... 4.70 to 7.00
CC(NC(=O)c1nc2ccccc2c(=O)[nH]1)c1ccc2c(c1)NC(=O)CO2 (centres unmarked) [1/5] ... 4.70 to 7.00
O=C1COc2ncc(CNC(=O)c3nc4ccccc4c(=O)[nH]3)cc2N1 [1/13] ... 4.70 to 7.00

Next, consider the following compound.
For O=C1COc2ccc(CNC(=O)c3nc(-c4ccccc4)cc(=O)[nH]3)cc2N1 [1/1] , what is its reported pIC50?
4.70 to 7.00
